molecular target: PRMT5/MEP50 complex (Homo sapiens, UniProt O14744); assay: Inhibition of recombinant human fetal brain FLAG-tagged PRMT5/full length human testis 6His-tagged MEP50 expressed in baculovirus infected insect Sf9 cells using human histone H4 (1 to 15 residues) as substrate preincubated for 30 mins followed by [3H]-SAM addition
Sequence (O14744 whole entry, the tested form may be a part): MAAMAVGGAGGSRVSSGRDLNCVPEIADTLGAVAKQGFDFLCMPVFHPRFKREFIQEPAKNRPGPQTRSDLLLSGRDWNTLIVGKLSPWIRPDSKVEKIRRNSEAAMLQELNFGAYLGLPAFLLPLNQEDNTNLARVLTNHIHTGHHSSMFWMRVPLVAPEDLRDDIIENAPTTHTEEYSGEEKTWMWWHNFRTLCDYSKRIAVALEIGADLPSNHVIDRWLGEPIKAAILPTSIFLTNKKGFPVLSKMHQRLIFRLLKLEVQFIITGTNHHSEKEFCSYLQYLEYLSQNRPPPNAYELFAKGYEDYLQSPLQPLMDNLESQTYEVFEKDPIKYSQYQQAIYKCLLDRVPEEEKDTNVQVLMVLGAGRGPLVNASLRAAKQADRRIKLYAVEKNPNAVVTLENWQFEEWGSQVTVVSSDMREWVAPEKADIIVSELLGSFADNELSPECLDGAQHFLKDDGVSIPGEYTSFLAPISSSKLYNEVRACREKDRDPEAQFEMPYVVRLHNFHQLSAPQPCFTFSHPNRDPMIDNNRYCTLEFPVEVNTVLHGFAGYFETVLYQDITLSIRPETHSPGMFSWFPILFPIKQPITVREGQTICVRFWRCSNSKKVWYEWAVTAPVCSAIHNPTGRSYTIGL
Sequence (Q9BQA1 whole entry, further chain, the tested form may be a part): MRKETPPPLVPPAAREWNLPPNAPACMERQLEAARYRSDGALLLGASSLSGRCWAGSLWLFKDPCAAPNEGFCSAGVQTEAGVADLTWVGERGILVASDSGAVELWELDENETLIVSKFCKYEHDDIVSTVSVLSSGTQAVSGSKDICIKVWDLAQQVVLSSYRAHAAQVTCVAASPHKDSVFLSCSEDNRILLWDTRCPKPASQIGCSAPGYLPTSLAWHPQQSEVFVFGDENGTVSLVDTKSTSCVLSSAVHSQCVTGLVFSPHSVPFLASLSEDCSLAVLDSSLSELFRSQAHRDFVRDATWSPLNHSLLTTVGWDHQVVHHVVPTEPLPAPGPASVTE
pIC50: −log10 of the molar value.
Kindly supply the reported pIC50 values for the records listed here.

Compound	Property Name	Assay Result
Cc1ccc(N2CCN(CC(O)CN3CCc4ccccc4C3)C(=O)C2)cc1 (stereo not drawn)	pIC50	6.00 to 7.00
O=C(NC[C@H](O)CN1CCc2ccccc2C1)c1ccccc1	pIC50	> 7.00
OC(COc1ccccc1-c1ccno1)CN1CCc2ccccc2C1 (stereo not drawn)	pIC50	5.00 to 6.00
O=C(NCC(O)CN1CCc2ccccc2C1)c1cccc(NC2CCOCC2)c1 (stereo not drawn)	pIC50	> 7.00
Cc1ccc(-c2cccc(OCC(O)CN3CCc4ccccc4C3)c2)cn1 (stereo not drawn)	pIC50	5.00 to 6.00
CN(C)c1ccc2cccc(OCC(=O)NC[C@@H](O)CN3CCc4ccccc4C3)c2n1	pIC50	> 7.00

Below are 3 compounds. Give each one its pIC50.
1. O=C(NC[C@H](O)CN1CCc2ccccc2C1)c1cccc(NC2CCOCC2)c1
2. CN1CCCCC1COCC(O)CN1CCc2ccccc2C1 (stereo not drawn)
3. COc1cccc2c1CCN(CC(O)COc1cccc(-c3ccc4ncn(C)c4c3)c1)C2 (stereo not drawn)

["> 7.00", "< 4.40", "5.00 to 6.00"]

Origin of values: ChEMBL document CHEMBL3879915
